method.description: yeast display, Sf9 membrane polyspecificity reagent, FACS + sequencing; frameworks hold sequencing errors

entry.sequence: QVQLVESGGGLVQAGGSLRLSCAASGGTFWLYAMGWYRQAPGKEREFVAAISYSGGSTYYADSVKGRFTISRDHAKNTVYLQMNSLKPEDTAVYYCAASAYYLDYDYWGQGTQVTVSS
polyreactivity (PSR sort gate): high polyreactivity
//
entry.sequence: QVQLVESGGGLVQAGGSLRLSCAASGRTFGYNAMGRYRQAPGKERELVAAIRYSGGSTYYADSVKGRFTISRDNAKNTVYLQMNSLKPEDTAVYYCAKESRRYYRGYYYWGQGTQVTVSS
polyreactivity (PSR sort gate): high polyreactivity

###

method.description: yeast display, Sf9 membrane polyspecificity reagent, FACS + sequencing; frameworks hold sequencing errors
quantity.measured: polyreactivity (PSR sort gate)

entry.sequence: QVQLVESGGGLVQAGGSLRLSCAASGRIFKYYAMGWYRQAPGKERELVAAINRDGGRTYYADSVKGRFTISRDNAKNTVYLQMNRLKPDDTAVYYCAASYGYWGQGSQVTVSS
obs.value: low polyreactivity

entry.sequence: QVQLVESGGGLVQAGGSLRLSCAASGRIFVINVMGWSRQAPGKERELVATITWSVGSTYYADSVKGRFTISRDTAKNTVYLQMNSLKPEDTAVYYCAAASSFKFDYWGQGTQVTVSS
obs.value: low polyreactivity

entry.sequence: QVQLVESGGGLVQAGGSLRLSCAASGSIFESYAMGWYRQAPGKERELVAAITLSGTSTYYADSVKGRFTISRDNAKNTVYLQMNSLKPEDTAVYYCNAKPIPVRGSYDYWGQGTQVTVSS
obs.value: low polyreactivity

entry.sequence: QVQLVESGGGLVQAGGSLRLRCAASGFTFQNYVMGWYRQAPGKESELVAAINSGGRTYYADSVKGRFTISRDYANNTVYLQMNSLKPEDTAVYFCKDRRGHYWGQGTQVTVSS
obs.value: high polyreactivity

entry.sequence: QVQLVESVGGLVQAGGSLRLSCPASGFIFSGHTMGWYRQAPGKERELVAAITSGGGRTYYADSVKGRFTISRDNAKNTVYLQMNSLKPEDTAVYYCNTAFVYEYDYWGQGTQVTVSS
obs.value: high polyreactivity

entry.sequence: QVQLVESGGGLVQAGGSLRLSCAASGSIFARYAMGWYRQAPGKERELVAAISSNSASTYYADSVKGRFTSSRDNAKNTVYLQMNSLKPEDTAVDYCATAYRSDWLNDYWGQGTQVTVSS
obs.value: low polyreactivity

entry.sequence: QVQLVESGGGLLQAGGSLRLSCAASGFTIVCYAMGWYRQAPGKERELVAAISSGGSTYYADSVKGRFTISRDNAKNTVFLLMNSLKPEDTAVYYCAADREYYDEYAGYEYWGQGTQVTVSS
obs.value: low polyreactivity

entry.sequence: QVQLVESGGGLVQAGGSLRLSCAASGSIFPYNAMGWYRQAPGKERELVATISSGGSTNYADSVKGRFTISRDNAKNTVYLQMNSLKPEDTAVYYCATDDFWNVKFYAYYPEFDYWGQGTQVTVSS
obs.value: low polyreactivity

input: Record request: polyreactivity (PSR sort gate) value, item `QVQLVESGGGLVQAGGSLRLSCAASGSIFQYNTMGWYRQAPGKERELVAAINWSGVSTYYADSVKGRFTISRDNAKNTVYLQMNSLKPEDTAVYYCNARRYVAGSYIYERGYWGQGTQVTVSS`
output: high polyreactivity

input: Entry `QVQLVESGGVLVQAGGSLRLSCAASGSAFRENDMGWYRQAPGKERELVAAITFSGGSTYADSVKGRFTISRDIAKNTVYLQMNSLKPEDSAVYYCSADTLPAEYEYDYWGQGTQVTVSS` has what polyreactivity (PSR sort gate)?
output: low polyreactivity

input: Dear colleague, I am looking for the recorded polyreactivity (PSR sort gate) of the following sequence: `QVQLVESGGGLVQAGGSLRLSCAASGSIFTQYAMGWYRQAPGKERELVAAISWRGGRTYYADSVKGRFTISRDNAKNTVYLQMNSLKPEDTAVYYCNRVYGAHHYYYGIGTYDYWGQGTQVTVSS`
output: high polyreactivity

###

method.description: yeast display, Sf9 membrane polyspecificity reagent, FACS + sequencing; frameworks hold sequencing errors

entry.sequence: QVQLVESGGGLVQAGGSLRLSCAASGPTFYLYDTMGWYRQAPGKERELVAAISWDDGDTYYADSVKGRFTISRDNAKTTVYLQMNSLKPEDTAVYYCAAEYLSGAHGYWGQGTHVTVSS
polyreactivity (PSR sort gate): low polyreactivity

entry.sequence: QVQLVESGGGLVQAGGSLRISSAASGFNSPSYAMGWYRQAPGKERELVAAISSGDSTNYADSVKGRFTISRDNAKNTVYLLMNSLKPEDTAVYYCAARYREQYDYWGQGTQVTVSS
polyreactivity (PSR sort gate): low polyreactivity

entry.sequence: QVQLVESGGGIVQAGGSLRLTCAASGRILGSNSIAWYRHAPGKERELVAAITSTGSTDYADSVKGRFTISRDNAKKTVYLQMNSLKPEDTAVYYCAADTSPYQDDYWGQGTQVTVSS
polyreactivity (PSR sort gate): low polyreactivity

entry.sequence: QVQLVESGGGLVQAGGSLRLSCAASGLTFGGNAMGWYRQAPGKERELVAAISWSDDTTDYADSVKGRFTISRDNAKNTVYVQMNSLKPEDTAVYYCAARLPFEHVDYWGQGTQVTVTS
polyreactivity (PSR sort gate): low polyreactivity

###

method.description: yeast display, Sf9 membrane polyspecificity reagent, FACS + sequencing; frameworks hold sequencing errors
quantity.measured: polyreactivity (PSR sort gate)

Example results:
entry.sequence: QVHIVESGGRLFQAGGSLRLSCAASGFTFAYYAMGWYRQAPGKEREMVAAISRGGTSTYYADSVKGRFTISRDNATNPVYLQMNSLKPEDTAVFYCNAVKVGYSLYDFWGQGTQVTVSS
polyreactivity (PSR sort gate): high polyreactivity

entry.sequence: QVQLVETGGGLVQAGGSLRVSCAASGSTFSGYAMGWYRQAPGKERELVAAITRSGGRTYYADSVKGRFTISRDNAKNTVYLQMNSLLPEDTAVYYCATDRAYYHSYGRFGYWGQGTHVTVSS
polyreactivity (PSR sort gate): high polyreactivity

entry.sequence: QFHLVESCGGLVQAGGSLRLSCAASGIIFSTYFMGWYIQAPGKERELVAAISSRGFSTYYADSVKGRFTISRDNAKKTVYLQMNSLIPEDTAVYYCAARYYYSRSRLYYYWGQGTQVTVSS
polyreactivity (PSR sort gate): high polyreactivity

entry.sequence: QVQLVESGGGLVQAGGSLRLSCAASGNIFVVNAMGWYRQAPGKERELVAGITTNGGRTFYADSVKGRFTISRDNAKNTVYLQINSLKPEDTAVYYWNARHGRHRRTRFAKYDYWGQGTQVTVSS
polyreactivity (PSR sort gate): high polyreactivity

input: Need polyreactivity (PSR sort gate) of `QVQLVESGGGLVQAGGSLRLSCAASGSIFEPYAMGWYRQAPGKERELVAGIRKSGATTYYADSVKGRFTISRDNAKNTVYLQMNSLKPEDSAVYYCNAVVKSSSRGSISHPGYDYWGQGTQVTVSS` , thanks.
output: high polyreactivity

input: polyreactivity (PSR sort gate) lookup needed for `QVHLVESGGGLVQAGASLRLSCAASGFTFGVNAMGWSRQAPGKERELVAVITSGGNTYYADSVKGRFTISRDNAKNTVYLHMNSLNPEDTAVYYCAAYGRASWERDYWGKGTQVTVSS` , thanks.
output: low polyreactivity

input: # query: polyreactivity (PSR sort gate) of entry `QVQLEESGGGLVQAGGSLRLSCAASGFTFPTNAMGWYRQAPGKERELVATISLGAGSTHYADSVKGRFTISRDNAKNTVYLQMNSLKPEDTAVYYCAARSRRWYDYDYWGQGTQVTVSS`
output: low polyreactivity

input: polyreactivity (PSR sort gate) for `QVQLVESGGGLVQAGGSLRLSCAASGRIFYQNTMGWYRQAPGKEREFVARINWSGGSTYYADSVKGRFTISRDNAKITVYLQMNSLKPEDTAVYYWAKASQSWGRDDYYYWGQGTQVTVSS` ?
output: low polyreactivity

input: # input sequence: `QVQLVESGGGLVQAGGSLRLSCAASGRNFYSYSMGWYRQEPGKERELVATITSNDGGTDYADSVKGRFTISRDNAKNTVYLQMNSLKPEDTAVYYCNAEDVLPEVGNRYNYWGQGTQVTVSS` ; wanted: its polyreactivity (PSR sort gate)
output: low polyreactivity

input: So what does the record say about polyreactivity (PSR sort gate) for `QVQLVESGGGLVQAGGSLRLSCAASGITFGDNTMGWYRQAPGKERELVAAITYSSTSTYYADSVKGRFTISRDNAKNTVYLQMNSLKPEDTAVYYCAAEGPGDVVSTDYDYWGQGTQVTVSS` ?
output: low polyreactivity

input: What value of measured polyreactivity (PSR sort gate) is listed for `QVQLVESGGGLVQAGGSLRLSCAASGSIFDYNAMGWYRQAPGKERELVAGITFIGGSTYYADSVKGRFTISRDNAKNTVYLQMNSLKPEDTAVYYCNADVAPGIFYGYESWGQGTQVSVSS` ?
output: low polyreactivity
